The reported numbers originate from PubChem BioAssay (NCI).

Provide the recorded growth for the entries that follow.
- Test system: NCI-H322M lung
- Method Summary: NCI-60 one-dose screen, 48 h (100 = growth as untreated, 0 = no growth, -100 = all killed)
- Condition Details: 10 µM unless noted
Compounds without any hit were thinned out: in the full panel of roughly 83,000, 20% have a hit.
Quick reminder: number only, in %, skip the unit.

q: Identify the reported growth for the following entry. CC1=NOC(=O)/C1=C\c1ccc(O)cc1
a: 95.2

q: Identify the reported growth for the following entry. O=C(c1ccccc1)c1c(/C=C/c2ccccc2)nc2ccccc2c1/C=C/c1ccc(Br)cc1
a: 96.7

q: Identify the reported growth for the following entry. O=C(Nc1cccc2c(O)c(N=Nc3ccc(S(=O)(=O)Nc4nccs4)cc3)cc(N=Nc3ccc(S(=O)(=O)Nc4nccs4)cc3)c12)C(Cl)Cl
a: 89.7

q: Identify the reported growth for the following entry. COCCN(C(=O)c1ccc(F)cc1F)c1c(N)n(Cc2ccccc2)c(=O)[nH]c1=O
a: 99.8

q: Identify the reported growth for the following entry. CCCCCCCCCCCCCCCCCCOc1ccccc1CC(=O)OCCC[N+](C)(C)C
a: 84.3

q: Identify the reported growth for the following entry. O=C1/C(=C/c2ccc(F)cc2)C=C(c2ccccc2)N1CCc1ccccc1
a: 65.6

q: Identify the reported growth for the following entry. CCSC1=NC2C(N(CC)C(=O)N2CC)N1/N=C/C=C/c1ccccc1[N+](=O)[O-] (stereo not given)
a: 31.2

q: Identify the reported growth for the following entry. Nc1n[nH]c(-c2cc(Cl)ccc2O)c1-c1ccccc1
a: 82.9

q: Identify the reported growth for the following entry. COC(=O)CCC1=C(C)C2=NC1=CC1=NC(=CC3=NC(=Cc4[nH]c(/c(=C(/C)O)c4C)=C2)C(C(C)=O)=C3C)C(C)=C1CCC(=O)OC
a: 102

q: Identify the reported growth for the following entry. CNC(=O)NCC1OC(n2cnc3c(NC(=O)Nc4ccccc4)ncnc32)C(O[Si](C)(C)C(C)(C)C)C1CC(=O)N(C)OC (stereo not given)
a: 78.8

q: Identify the reported growth for the following entry. NNC(=O)c1nc(N)n(-c2ccc(S(N)(=O)=O)cc2)n1
a: 97.3

q: Identify the reported growth for the following entry. O=C1CCC2=C3C4CCCCC4C(=O)C4CCCC(OC2C1)C34 (stereo not given)
a: 18

q: Identify the reported growth for the following entry. COc1ccc(C(=O)/C=C/c2c(C(F)(F)F)nc3sccn23)cc1OC
a: 34.6

q: Identify the reported growth for the following entry. O=c1ssc(Cl)c1-c1ccccc1
a: 105

q: Identify the reported growth for the following entry. NC(=S)N/N=C/Cc1ccccc1
a: 105

q: Identify the reported growth for the following entry. O=C(Nc1ccccc1Cl)Oc1ccc(-c2ccccc2)cc1
a: 114

q: Identify the reported growth for the following entry. Cc1ccc(Cl)c(NS(=O)(=O)c2ccc(-c3cnc(C4CC4)o3)cc2)c1
a: 44.4

q: Identify the reported growth for the following entry. COC(=O)[C@]12CC[C@@H](C)[C@H](C)[C@@H]1C1=CC[C@@H]3[C@@]4(C)C(C=O)=C[C@@](C)(COS(C)(=O)=O)C4[C@H](O)C[C@@]3(C)[C@]1(C)CC2 (stereo not given in full)
a: -1.44

q: Identify the reported growth for the following entry. COc1cc(C2CC(=O)Nc3c2c(C)nn3-c2nc3ccccc3[nH]2)c(OC)c2c1OCO2 (stereo not given)
a: 86.9

q: Identify the reported growth for the following entry. COc1ccccc1N1C(=O)/C(=C/C2=Cc3ccccc3OC2)SC1=S
a: 92.6

q: Identify the reported growth for the following entry. Fc1cnc(NC2CC2)nc1-c1cnc2ccc(N3CCOCC3)cn12
a: 4.31

q: Identify the reported growth for the following entry. CSc1n(Cc2ccc3ccccc3c2)c(C)c[n+]1Cc1ccc2ccccc2c1
a: 40.5

q: Identify the reported growth for the following entry. Cc1cccc(NC(=O)N/C(N)=N/c2nc(C)c(C)s2)c1
a: 82.7

q: Identify the reported growth for the following entry. CCCCCCCCCCCCCCCCCCOc1ccc(CC(=O)OCC[N+]2(C)CCCC2)cc1
a: 102

q: Identify the reported growth for the following entry. Cc1ccc(S(=O)(=O)N/N=C\c2cc(Cl)ccc2O)cc1
a: 114

q: Identify the reported growth for the following entry. Cc1ccc(C2SCC(=O)N2Cc2ccccc2)cc1 (stereo not given)
a: 95.6

q: Identify the reported growth for the following entry. Nc1cc2c3c(cccc3c1)C(=O)N(CCN1CCCC1)C2=O
a: 54.5

q: Identify the reported growth for the following entry. COc1ccc2occ(C3=C(c4c[nH]c5ccccc45)C(=O)N(O)C3=O)c2c1
a: 93.7

q: Identify the reported growth for the following entry. Cc1cc(Cl)ccc1Nc1nc(C(F)(F)F)ccc1C(=O)N/N=C/c1ccc(N(C)C)cc1
a: 25.7

q: Identify the reported growth for the following entry. O=c1ccn2nc3ccccc3c2[nH]1
a: 97.8

q: Identify the reported growth for the following entry. O=c1cc(-c2ccc(Cl)cc2)[nH]c2ccccc12
a: 92.3

q: Identify the reported growth for the following entry. O=[N+]([O-])c1ccc(OCCO)cc1
a: 104

q: Identify the reported growth for the following entry. CN1C(=O)N(C)C2C1NN=c1s/c(=C\c3ccccc3)c(=O)n12 (stereo not given)
a: 59

q: Identify the reported growth for the following entry. C(=N\Nc1ncc(-c2cc3cc4c(cc3o2)OCO4)s1)/c1ccco1
a: 77.3

q: Identify the reported growth for the following entry. COc1ccc(NC(=O)c2nc(-c3cc(OC)c(OC)c(OC)c3)n(-c3cccc4ccccc34)n2)cc1OC
a: 44.8

q: Identify the reported growth for the following entry. CC(C)Sc1nc(NNC(N)=S)c(C#N)c(-c2ccc(F)cc2)n1
a: 99.1

q: Identify the reported growth for the following entry. O=C(NCCCNc1cc(-c2cn(-c3ccccc3)nc2-c2cccc(O)c2)ccn1)c1ccc(F)cc1
a: 62.8

q: Identify the reported growth for the following entry. Cc1ccc2nc(NC(=O)CSc3nc(-c4ccccc4)c(C#N)c(=O)n3Cc3ccccc3)sc2c1
a: 96.4

q: Identify the reported growth for the following entry. COc1cccc(C(=O)NCCNc2cc(-c3cn(-c4ccccc4)nc3-c3cccc(OC)c3)ccn2)c1
a: 92.6

q: Identify the reported growth for the following entry. O=C(Nc1cccc(Oc2nnc(Cl)c3ccccc23)c1)Nc1ccc(Cl)c(C(F)(F)F)c1
a: -5.16
